# targetEntity: NaV1.8 (Homo sapiens, UniProt Q9Y5Y9)
# experimentNotes: VIPR optical membrane potential assay, NaV1.8 (other subtypes in an analogous mode)
# Format: cell-based
# assayContext: Table 9, NaV 1.8 receptors
pIC50: −log10 of the molar value.
Kindly state pIC50 for each of the entries shown.

Below: 3 compounds and their reported pIC50.
COc1cccc(N(C(=O)c2cnc(N3CCCCC3)nc2-c2ccccc2F)C2CCCCC2)c1: < 5.00
O=C(c1cnc(N2CCOCC2)nc1-c1ccccc1F)N(Cc1ccc(F)cc1)C1CC1: < 5.00
COc1cccc(N(C(=O)c2c(C)nc(N3CCOCC3)nc2-c2ccccc2F)C(C)C)c1: < 5.00

Take each entry in turn and give its pIC50.
1. CN1CCN(c2ncc(C(=O)N(Cc3ccccc3)C3CCCC3)c(-c3ccccc3F)n2)CC1
2. CN(CCc1ccccc1)C(=O)c1cnc(N2CCOCC2)nc1-c1ccccc1F

## Output
< 5.00
< 5.00

Take each entry in turn and give its pIC50.
1. COc1cccc(CN(C(=O)c2cnc(NC(C)c3ccccc3)nc2-c2ccccc2F)C(C)C)c1 (centres unmarked)
2. C=CCN(CC=C)c1ncc(C(=O)N(Cc2ccccc2)C(C)C)c(-c2ccccc2F)n1

## Output
5.00 to 5.70
5.00 to 5.70

## Input I am curious: what pIC50 value has been reported for COc1ccc(N(C(=O)c2cnc(N3CCCCC3)nc2-c2ccccc2Cl)C(C)C)cc1 ?
## Output < 5.00

====

# targetEntity: CaV2.2 (Homo sapiens, UniProt Q00975)
# Sequence (Q00975 whole entry): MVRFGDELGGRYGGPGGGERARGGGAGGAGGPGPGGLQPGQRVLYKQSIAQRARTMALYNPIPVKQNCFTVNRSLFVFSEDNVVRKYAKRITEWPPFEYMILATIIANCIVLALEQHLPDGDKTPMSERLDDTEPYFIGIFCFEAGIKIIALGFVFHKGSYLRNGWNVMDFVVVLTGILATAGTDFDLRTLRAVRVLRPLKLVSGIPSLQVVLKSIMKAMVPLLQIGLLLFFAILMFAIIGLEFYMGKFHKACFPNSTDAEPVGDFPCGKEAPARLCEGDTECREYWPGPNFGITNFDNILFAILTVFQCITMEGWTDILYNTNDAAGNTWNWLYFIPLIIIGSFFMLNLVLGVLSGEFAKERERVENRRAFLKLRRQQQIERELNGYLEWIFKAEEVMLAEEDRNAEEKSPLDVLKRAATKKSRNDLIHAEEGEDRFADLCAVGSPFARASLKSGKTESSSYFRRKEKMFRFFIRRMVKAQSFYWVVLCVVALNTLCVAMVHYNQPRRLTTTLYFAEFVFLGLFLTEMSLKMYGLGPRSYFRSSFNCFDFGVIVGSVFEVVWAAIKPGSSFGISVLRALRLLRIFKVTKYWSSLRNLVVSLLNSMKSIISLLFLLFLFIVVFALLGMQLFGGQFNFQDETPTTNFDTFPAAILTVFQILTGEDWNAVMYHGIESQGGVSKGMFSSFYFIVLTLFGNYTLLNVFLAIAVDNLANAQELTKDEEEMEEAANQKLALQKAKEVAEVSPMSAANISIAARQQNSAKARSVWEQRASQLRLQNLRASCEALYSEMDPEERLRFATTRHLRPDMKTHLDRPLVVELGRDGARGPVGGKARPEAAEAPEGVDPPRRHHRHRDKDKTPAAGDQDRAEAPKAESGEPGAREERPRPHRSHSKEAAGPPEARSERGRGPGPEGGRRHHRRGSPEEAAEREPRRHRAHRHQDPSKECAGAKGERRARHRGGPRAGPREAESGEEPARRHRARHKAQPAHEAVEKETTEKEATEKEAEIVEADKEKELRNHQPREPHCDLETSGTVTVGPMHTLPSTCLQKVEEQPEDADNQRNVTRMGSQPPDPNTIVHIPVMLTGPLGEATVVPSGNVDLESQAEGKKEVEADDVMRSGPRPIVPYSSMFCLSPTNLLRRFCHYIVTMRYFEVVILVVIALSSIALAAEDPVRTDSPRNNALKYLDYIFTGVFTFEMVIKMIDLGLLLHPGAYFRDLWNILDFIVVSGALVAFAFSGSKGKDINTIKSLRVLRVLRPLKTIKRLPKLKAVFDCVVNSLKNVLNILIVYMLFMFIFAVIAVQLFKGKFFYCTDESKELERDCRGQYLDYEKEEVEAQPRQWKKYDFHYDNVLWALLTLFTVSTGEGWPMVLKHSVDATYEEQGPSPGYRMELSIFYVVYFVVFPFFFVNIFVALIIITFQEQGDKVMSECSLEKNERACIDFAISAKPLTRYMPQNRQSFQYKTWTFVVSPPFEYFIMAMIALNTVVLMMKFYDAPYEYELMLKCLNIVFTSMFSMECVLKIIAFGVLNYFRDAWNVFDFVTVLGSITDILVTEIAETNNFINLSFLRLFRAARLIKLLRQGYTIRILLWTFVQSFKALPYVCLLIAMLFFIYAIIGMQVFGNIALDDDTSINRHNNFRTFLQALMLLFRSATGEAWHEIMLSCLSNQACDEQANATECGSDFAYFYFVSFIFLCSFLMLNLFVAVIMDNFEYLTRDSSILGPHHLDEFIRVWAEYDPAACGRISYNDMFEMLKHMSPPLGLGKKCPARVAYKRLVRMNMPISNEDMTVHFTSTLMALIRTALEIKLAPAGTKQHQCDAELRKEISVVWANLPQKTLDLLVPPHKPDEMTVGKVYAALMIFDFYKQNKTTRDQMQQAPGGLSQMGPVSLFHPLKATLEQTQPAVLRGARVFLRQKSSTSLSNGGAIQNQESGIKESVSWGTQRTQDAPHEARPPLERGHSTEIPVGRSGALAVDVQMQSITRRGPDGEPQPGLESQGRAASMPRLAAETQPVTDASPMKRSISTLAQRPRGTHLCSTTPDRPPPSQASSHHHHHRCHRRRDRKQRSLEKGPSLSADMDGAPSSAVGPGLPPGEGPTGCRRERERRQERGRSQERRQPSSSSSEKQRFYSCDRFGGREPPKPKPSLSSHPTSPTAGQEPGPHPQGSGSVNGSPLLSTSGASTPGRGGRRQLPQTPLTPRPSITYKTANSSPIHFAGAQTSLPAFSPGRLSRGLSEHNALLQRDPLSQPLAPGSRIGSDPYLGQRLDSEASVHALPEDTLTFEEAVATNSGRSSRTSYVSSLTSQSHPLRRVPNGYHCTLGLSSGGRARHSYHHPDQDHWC
# Sequence (P54284 whole entry partner): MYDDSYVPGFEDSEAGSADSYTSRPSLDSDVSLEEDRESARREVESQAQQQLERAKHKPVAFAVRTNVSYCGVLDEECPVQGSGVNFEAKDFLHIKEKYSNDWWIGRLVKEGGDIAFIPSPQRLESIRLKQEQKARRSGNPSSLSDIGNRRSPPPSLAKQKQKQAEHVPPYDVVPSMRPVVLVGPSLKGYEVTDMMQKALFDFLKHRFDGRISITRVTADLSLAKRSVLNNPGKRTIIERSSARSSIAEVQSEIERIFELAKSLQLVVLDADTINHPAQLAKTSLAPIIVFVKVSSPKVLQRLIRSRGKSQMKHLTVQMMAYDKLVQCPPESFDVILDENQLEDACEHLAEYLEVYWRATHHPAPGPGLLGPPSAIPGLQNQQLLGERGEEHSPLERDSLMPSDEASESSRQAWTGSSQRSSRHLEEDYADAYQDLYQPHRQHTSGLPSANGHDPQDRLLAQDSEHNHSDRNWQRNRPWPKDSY
# Sequence (P54289 25-956 partner limits assumed): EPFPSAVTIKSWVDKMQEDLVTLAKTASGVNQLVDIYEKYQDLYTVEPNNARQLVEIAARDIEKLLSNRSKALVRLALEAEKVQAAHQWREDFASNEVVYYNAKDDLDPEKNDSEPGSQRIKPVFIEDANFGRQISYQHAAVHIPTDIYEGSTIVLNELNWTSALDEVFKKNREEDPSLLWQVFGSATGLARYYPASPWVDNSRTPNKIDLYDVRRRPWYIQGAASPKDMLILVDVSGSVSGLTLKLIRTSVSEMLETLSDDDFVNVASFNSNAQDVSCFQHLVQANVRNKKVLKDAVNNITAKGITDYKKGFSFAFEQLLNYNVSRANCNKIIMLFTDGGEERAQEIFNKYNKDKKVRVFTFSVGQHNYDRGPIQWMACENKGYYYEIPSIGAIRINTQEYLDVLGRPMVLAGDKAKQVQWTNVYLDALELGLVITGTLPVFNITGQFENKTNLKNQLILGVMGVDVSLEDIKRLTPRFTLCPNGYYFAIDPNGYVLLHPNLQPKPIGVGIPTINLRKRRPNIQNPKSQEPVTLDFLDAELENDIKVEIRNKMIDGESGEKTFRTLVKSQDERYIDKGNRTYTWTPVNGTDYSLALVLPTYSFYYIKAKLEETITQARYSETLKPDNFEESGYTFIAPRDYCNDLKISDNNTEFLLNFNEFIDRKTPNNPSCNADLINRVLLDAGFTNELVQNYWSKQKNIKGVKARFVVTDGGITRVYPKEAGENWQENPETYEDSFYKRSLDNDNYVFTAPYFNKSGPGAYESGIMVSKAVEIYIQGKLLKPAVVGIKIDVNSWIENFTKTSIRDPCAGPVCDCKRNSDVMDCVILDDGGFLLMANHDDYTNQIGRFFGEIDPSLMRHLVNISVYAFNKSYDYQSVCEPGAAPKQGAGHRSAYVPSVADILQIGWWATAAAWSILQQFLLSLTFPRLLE
# Sequence (P54289 957-1103 partner limits assumed): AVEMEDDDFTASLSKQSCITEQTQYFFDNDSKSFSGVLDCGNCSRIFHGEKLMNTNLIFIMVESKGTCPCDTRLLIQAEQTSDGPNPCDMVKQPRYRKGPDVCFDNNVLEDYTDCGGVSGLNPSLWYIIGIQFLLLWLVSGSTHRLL
# experimentNotes: VIPR optical membrane potential assay with electrical stimulation, CaV2.2
# assayContext: Table 9, CaV 2.2 receptors
Kindly state IC50 for each of the entries shown.

COc1ccc(CN(C(=O)c2cnc(N3CCC4CCCCC4C3)nc2-c2ccccc2F)C2CC2)cc1 (centres unmarked): 2 to 10 µM
COc1ccccc1CCNC(=O)c1cnc(N2CCOCC2)nc1-c1ccccc1F: > 10 µM
CC(C)N(C(=O)c1cnc(N2CCC3CCCCC3C2)nc1-c1ccccc1F)C1CCSC1 (centres unmarked): 2 to 10 µM
COc1ccc(N(C(=O)c2cnc(N3CCOCC3)nc2-c2ccccc2F)C(C)C)cc1: 2 to 10 µM
CC(C)(C)c1ccc(CN(C(=O)c2cnc(N3CCOCC3)nc2-c2ccccc2F)C2CC2)cc1: 2 to 10 µM
CCN(Cc1cccc(C)c1)C(=O)c1cnc(NC2CCCC2)nc1-c1ccc(C#N)cc1: 2 to 10 µM
CC(C)N(Cc1ccccc1)C(=O)c1cnc(NCCc2cccc(C(F)(F)F)c2)nc1-c1ccccc1F: < 2 µM

// moving on: another record for IC50
## Input I am curious: what IC50 value has been reported for CC(C)N(Cc1ccccc1)C(=O)c1cnc(N2CCOCC2)nc1-c1ccc(Oc2ccccc2)cc1 ?
## Output 2 to 10 µM

====

Kindly state IC50 for each of the entries shown.
# targetEntity: CaV2.2 (Homo sapiens, UniProt Q00975)
# experimentNotes: VIPR optical membrane potential assay with electrical stimulation, CaV2.2
# assayContext: Table 9, CaV 2.2 receptors

CCN(Cc1ccccc1)C(=O)c1cnc(NC2CCCC2)nc1-c1ccccc1F: > 10 µM
COc1cccc(OC)c1-c1nc(N2CCOCC2)ncc1C(=O)N(Cc1ccccc1)C(C)C: > 10 µM
CCCCNC(=O)c1cnc(N2CCOCC2)nc1-c1ccccc1F: > 10 µM

// moving on: another record for IC50
## Input // map COc1ccc(CN(C(=O)c2cnc(N3CCCCC3)nc2-c2ccccc2Cl)C2CC2)cc1 to recorded IC50 (system: CaV2.2 (Homo sapiens, UniProt Q00975))
## Output 2 to 10 µM

====

Kindly state IC50 for each of the entries shown.
# targetEntity: NaV1.8 (Homo sapiens)
# experimentNotes: VIPR optical membrane potential assay, NaV1.8 (other subtypes in an analogous mode)
# Assay type: cell-based
# assayContext: Table 9, NaV 1.8 receptors
# Procedure: Antagonist properties of test compounds were assessed as follows. Cells expressing the NaV of interest were placed into microtiter plates. […] The cells were stimulated with either chemical or electrical means to evoke a NaV dependent membrane potential change from unblocked channels, which was detected and measured with trans-membrane potential-sensitive dyes. Antagonists were detected as a decreased membrane potential response to the stimulus. […]

Below: 4 compounds and their reported IC50.
CN1CCN(c2ncc(C(=O)N(Cc3ccncc3)C3CC3)c(-c3ccccc3F)n2)CC1 [compound 18]: > 10 µM
COc1cccc(Nc2ncc(C(=O)N(Cc3ccccc3)C(C)C)c(-c3ccccc3F)n2)c1 [compound 15]: > 10 µM
CC(C)N(Cc1ccccc1)C(=O)c1cnc(Nc2ccc(F)cc2)nc1-c1ccccc1F [compound 181]: > 10 µM
CC(C)N(C(=O)c1cnc(N2CCCCC2)nc1-c1ccccc1F)c1ccc2c(c1)OCO2 [compound 70]: > 10 µM

Take each entry in turn and give its IC50.
1. CC(C)(C)c1ccc(CN(C(=O)c2cnc(N3CCOCC3)nc2-c2ccccc2F)C2CC2)cc1 [compound 161]
2. O=C(c1cnc(N2CCOCC2)nc1-c1ccccc1F)N1CC=C(c2ccccc2)CC1 [compound 91]

## Output
1: 2 to 10 µM; 2: > 10 µM

Take each entry in turn and give its IC50.
1. COc1cccc(CN(C(=O)c2cnc(N3CCC4CCCCC4C3)nc2-c2ccccc2F)C(C)C)c1 (centres unmarked) [compound 162]
2. CC(C)N(Cc1ccc2c(c1)OCO2)C(=O)c1cnc(N2CCCCC2)nc1-c1ccccc1F [compound 94]

## Output
1. > 10 µM
2. 2 to 10 µM

====

# targetEntity: CaV2.2 (Homo sapiens, UniProt Q00975)
# experimentNotes: VIPR optical membrane potential assay with electrical stimulation, CaV2.2
# assayContext: Table 9, CaV 2.2 receptors
pIC50: −log10 of the molar value.
Kindly state pIC50 for each of the entries shown.

CN(C(=O)c1cnc(NCC2CC2)nc1-c1ccc(C#N)cc1)C1CCCCC1: < 5.00
COc1cccc(N(C(=O)c2cnc(N3CCC4CCCCC4C3)nc2-c2ccccc2F)C(C)C)c1 (centres unmarked): 5.00 to 5.70
CC(C)N(Cc1ccccc1)C(=O)c1cnc(Nc2cccc(C(N)=O)c2)nc1-c1ccccc1F: < 5.00
COc1cccc(N(C(=O)c2cnc(N3CCN(C)CC3)nc2-c2ccccc2F)C(C)C)c1: < 5.00
CC1CCCCC1NC(=O)c1cnc(N2CCCC(C(N)=O)C2)nc1-c1ccc(C#N)cc1 (centres unmarked): < 5.00

Take each entry in turn and give its pIC50.
1. CC(C)N(Cc1ccccc1)C(=O)c1cnc(N2CCC(O)C2)nc1-c1ccccc1F (centres unmarked)
2. CC1CC(C)CN(C(=O)c2cnc(NCCc3cccc(F)c3)nc2-c2ccc(C#N)cc2)C1 (centres unmarked)
3. CCN(Cc1ccccc1)C(=O)c1cnc(NCc2ccc3c(c2)OCO3)nc1-c1ccccc1F

## Output
< 5.00
5.00 to 5.70
< 5.00

====

Kindly state pIC50 for each of the entries shown.
# targetEntity: CaV2.2 (Homo sapiens, UniProt Q00975)
# experimentNotes: VIPR optical membrane potential assay with electrical stimulation, CaV2.2
# assayContext: Table 9, CaV 2.2 receptors
pIC50: −log10 of the molar value.

N#Cc1ccc(-c2nc(NCC3CCCCC3)ncc2C(=O)NCCc2cccc(F)c2)cc1 [compound 345]: < 5.00
CCCCNC(=O)c1cnc(N(C)CCc2ccc(OC)c(OC)c2)nc1-c1ccc(C#N)cc1 [compound 299]: < 5.00
COc1cccc(CN(C(=O)c2c(C)nc(N3CCOCC3)nc2-c2ccccc2F)C(C)C)c1 [compound 186]: 5.00 to 5.70
O=C(c1cnc(N2CCOCC2)nc1-c1ccccc1F)N(Cc1cccc(C(F)(F)F)c1)C1CC1 [compound 195]: 5.00 to 5.70

Take each entry in turn and give its pIC50.
1. COc1ccccc1CCNC(=O)c1cnc(N2CCCC2)nc1-c1cccc(C)c1 [compound 272]
2. O=C(c1cnc(N2CCOCC2)nc1-c1ccccc1F)N1CCOCC1 [compound 275]

## Output
1: < 5.00; 2: < 5.00

Take each entry in turn and give its pIC50.
1. COc1ccc(N(C(=O)c2cnc(N3CCC4CCCCC4C3)nc2-c2ccccc2F)C(C)C)cc1 (centres unmarked) [compound 12]
2. CCN(C)c1ncc(C(=O)N2CC(C)CC(C)C2)c(-c2ccc(C#N)cc2)n1 (centres unmarked) [compound 347]

## Output
["> 5.70", "< 5.00"]

====

Kindly state IC50 for each of the entries shown.
# targetEntity: NaV1.3 (Homo sapiens)
# Construct: expressed in transfected cells; host or cells: HEK293
# experimentNotes: VIPR optical membrane potential assay with electrical stimulation, NaV1.3
# Format: cell-based
# assayContext: Table 9, NaV 1.3 receptors

CC(C)N(Cc1ccccc1)C(=O)c1cnc(NCCc2ccc(F)cc2)nc1-c1ccccc1F: 2 to 10 µM
CC(C)N(Cc1ccc(C(C)(C)C)cc1)C(=O)c1cnc(N2CCCCC2)nc1-c1ccccc1Cl: > 10 µM
CN1CCN(c2ncc(C(=O)N(Cc3ccccc3)C3CCCCC3)c(-c3ccccc3F)n2)CC1: > 10 µM

Take each entry in turn and give its IC50.
1. CC(=O)N1CCN(c2ncc(C(=O)N(C)CC(C)C)c(-c3ccc(-c4ccccc4)cc3)n2)CC1
2. COc1cccc(N(C(=O)c2cnc(N3CCCCC3)nc2-c2ccccc2F)C2CCOCC2)c1
3. Cc1ccc(CNc2ncc(C(=O)N3CCC(C)CC3)c(-c3ccc(C#N)cc3)n2)o1
4. CC(C)N(Cc1ccc2c(c1)OCO2)C(=O)c1cnc(N2CCCCC2)nc1-c1ccccc1F
5. CCN(Cc1ccccc1)C(=O)c1cnc(NCc2ccc3c(c2)OCO3)nc1-c1ccc(C#N)cc1
6. CCC(C)Nc1ncc(C(=O)NC2CCCCC2C)c(-c2ccccc2F)n1 (stereo not shown)
7. O=C(c1cnc(N2CCOCC2)nc1-c1ccccc1F)N1CCc2ccccc2C1
8. COCCCNC(=O)c1cnc(N2CCOCC2)nc1-c1ccc(C#N)cc1

## Output
> 10 µM
> 10 µM
> 10 µM
< 2 µM
> 10 µM
> 10 µM
> 10 µM
> 10 µM
